Test system: tubulin
Test: Fluorescence-based microtubule polymerization assay (MPA)
Format: biochemical
Conditions: mean percentage of paclitaxel or vinblastine activity; 0.75-10 micromolar
Text: Drug-linker constructs may further be screened using functional assays predictive of biological activity. […] Tubulin assembly or inhibition thereof may be monitored by fluorescence using the CytoDYNAMIX Screen™ 10 kit available from Cytoskeleton (1830 S. Acoma St., Denver, Colo.). […] Emission is monitored at 405 nm with excitation at 360 nm. […] Tubulin assembly or inhibition may also be monitored by light scattering which is approximated by the apparent absorption at 350 nm. […]
endpoint_label: Ave. MPA Act

>>> measured_value("CC(=O)O[C@@]12CO[C@@H]1C[C@H](O)[C@@]1(C)C(=O)[C@H](OC(=O)NCCOCCOCCOCCn3c(=O)c(C)cn([C@@H]4C[C@H](O)[C@@H](CO)O4)c3=O)C3=C(C)[C@@H](OC(=O)[C@H](O)[C@@H](NC(=O)c4ccccc4)c4ccccc4)C[C@@](O)([C@@H](OC(=O)c4ccccc4)[C@H]21)C3(C)C [PXL-10Ca-PEG(11)-N3-αTHY]")
"B (B=60-100)"
>>> measured_value("CC(=O)O[C@H]1C(=O)[C@]2(C)[C@@H](OC(=O)NCCCCCCn3c(=O)c(C)cn([C@@H]4C[C@H](O)[C@@H](CO)O4)c3=O)C[C@H]3OC[C@@]3(OC(C)=O)[C@H]2[C@H](OC(=O)c2ccccc2)[C@]2(O)C[C@H](OC(=O)[C@H](O)[C@@H](NC(=O)c3ccccc3)c3ccccc3)C(C)=C1C2(C)C")
"B (B=60-100)"
>>> measured_value("CC[C@]1(O)C[C@@H]2CN(CCc3c([nH]c4ccccc34)[C@@](C(=O)OC)(c3cc4c(cc3OC)N(C)[C@H]3[C@@](O)(C(=O)NCCCCCCCCN)[C@H](O)[C@]5(CC)C=CCN6CC[C@]43[C@@H]65)C2)C1")
"B (B=60-100)"
>>> measured_value("CC[C@]1(O)C[C@@H]2CN(CCc3c([nH]c4ccccc34)[C@@](C(=O)OC)(c3cc4c(cc3OC)N(C)[C@H]3[C@@](O)(C(=O)NN)[C@H](O)[C@]5(CC)C=CCN6CC[C@]43[C@@H]65)C2)C1 [Desacetylvinblastine monohydrazine]")
"C (C>100)"
>>> measured_value("CC[C@]1(O)C[C@@H]2CN(CCc3c([nH]c4ccccc34)[C@@](C(=O)OC)(c3cc4c(cc3OC)N(C)[C@H]3[C@@](O)(C(=O)NCCCCCCN)[C@H](O)[C@]5(CC)C=CCN6CC[C@]43[C@@H]65)C2)C1")
"C (C>100)"
>>> measured_value("CC[C@]1(O)C[C@@H]2CN(CCc3c([nH]c4ccccc34)[C@@](C(=O)OC)(c3cc4c(cc3OC)N(C)[C@H]3[C@@](O)(C(=O)NCCCCCCn5c(=O)c(C)cn([C@H]6C[C@H](O)[C@@H](CO)O6)c5=O)[C@H](O)[C@]5(CC)C=CCN6CC[C@]43[C@@H]65)C2)C1")
"B (B=60-100)"
>>> measured_value("CC[C@]1(O)C[C@@H]2CN(CCc3c([nH]c4ccccc34)[C@@](C(=O)OC)(c3cc4c(cc3OC)N(C)[C@H]3[C@@](O)(C(=O)NCCCCn5c(=O)c(C)cn([C@H]6C[C@H](O)[C@@H](CO)O6)c5=O)[C@H](O)[C@]5(CC)C=CCN6CC[C@]43[C@@H]65)C2)C1")
"C (C>100)"

* * *

system: tubulin; experiment: Fluorescence-based microtubule polymerization assay (MPA); assay type: biochemical; settings: mean percentage of paclitaxel or vinblastine activity; 0.75-10 micromolar
endpoint_label: Ave. MPA Act

>>> measured_value("CC(=O)O[C@@]12CO[C@@H]1C[C@H](O)[C@@]1(C)C(=O)[C@H](OC(=O)NCCOCCn3c(=O)c(C)cn([C@@H]4C[C@H](O)[C@@H](CO)O4)c3=O)C3=C(C)[C@@H](OC(=O)[C@H](O)[C@@H](NC(=O)c4ccccc4)c4ccccc4)C[C@@](O)([C@@H](OC(=O)c4ccccc4)[C@H]21)C3(C)C [PXL-10Ca-PEG(5)-N3-αTHY]")
"B (B=60-100)"
>>> measured_value("CC[C@]1(O)C[C@@H]2CN(CCc3c([nH]c4ccccc34)[C@@](C(=O)OC)(c3cc4c(cc3OC)N(C)[C@H]3[C@@](O)(C(=O)OC)[C@H](OC(C)=O)[C@]5(CC)C=CCN6CC[C@]43[C@@H]65)C2)C1")
"C (C>100)"
>>> measured_value("CC(=O)O[C@@]12CO[C@@H]1C[C@H](O)[C@@]1(C)C(=O)[C@H](OC(=O)NCCCCCCn3c(=O)c(C)cn([C@@H]4C[C@H](O)[C@@H](CO)O4)c3=O)C3=C(C)[C@@H](OC(=O)[C@H](O)[C@@H](NC(=O)c4ccccc4)c4ccccc4)C[C@@](O)([C@@H](OC(=O)c4ccccc4)[C@H]21)C3(C)C [PXL-10Ca-ALK(6)-N3-αTHY]")
"B (B=60-100)"
>>> measured_value("C=CCOC(=O)O[C@@H](C(=O)O[C@H]1C[C@@]2(O)[C@@H](OC(=O)c3ccccc3)[C@@H]3[C@]4(OC(C)=O)CO[C@@H]4C[C@H](O)[C@@]3(C)C(=O)[C@H](OC(C)=O)C(=C1C)C2(C)C)[C@@H](NC(=O)c1ccccc1)c1ccccc1")
"A (A<60)"
>>> measured_value("CC[C@]1(O)C[C@@H]2CN(CCc3c([nH]c4ccccc34)[C@@](C(=O)OC)(c3cc4c(cc3OC)N(C)[C@H]3[C@@](O)(C(=O)NCCOCCn5c(=O)c(C)cn([C@H]6C[C@H](O)[C@@H](CO)O6)c5=O)[C@H](O)[C@]5(CC)C=CCN6CC[C@]43[C@@H]65)C2)C1")
"C (C>100)"
>>> measured_value("CC(=O)O[C@@]12CO[C@@H]1C[C@H](O)[C@@]1(C)C(=O)[C@H](OC(=O)CCCCCN)C3=C(C)[C@@H](OC(=O)[C@H](O)[C@@H](NC(=O)c4ccccc4)c4ccccc4)C[C@@](O)([C@@H](OC(=O)c4ccccc4)[C@H]21)C3(C)C [PXL-10Es-ALK(5)-NH2]")
"B (B=60-100)"
>>> measured_value("CC[C@]1(O)C[C@@H]2CN(CCc3c([nH]c4ccccc34)[C@@](C(=O)OC)(c3cc4c(cc3OC)N(C)[C@H]3[C@@](O)(C(=O)NCCCCCCCCCCCCNC(=O)OC(C)(C)C)[C@H](O)[C@]5(CC)C=CCN6CC[C@]43[C@@H]65)C2)C1")
"A (A<60)"

* * *

assay: Cytotoxicity assay (soft agar), MCF-7; details: human
endpoint_label: selectivity ratio

>>> measured_value("CC(=O)O[C@H]1C(=O)[C@@]2(C)[C@H]([C@H](OC(=O)c3ccccc3)[C@]3(O)C[C@H](OC(=O)[C@H](O)[C@@H](NC(=O)c4ccccc4)c4ccccc4)C(C)=C1C3(C)C)[C@]1(OC(C)=O)CO[C@@H]1C[C@@H]2O")
1.4

This collection of values is drawn from patent US20050148534A1.
